Target: hERG (Homo sapiens (Human))
Sequence (Q12809 whole entry): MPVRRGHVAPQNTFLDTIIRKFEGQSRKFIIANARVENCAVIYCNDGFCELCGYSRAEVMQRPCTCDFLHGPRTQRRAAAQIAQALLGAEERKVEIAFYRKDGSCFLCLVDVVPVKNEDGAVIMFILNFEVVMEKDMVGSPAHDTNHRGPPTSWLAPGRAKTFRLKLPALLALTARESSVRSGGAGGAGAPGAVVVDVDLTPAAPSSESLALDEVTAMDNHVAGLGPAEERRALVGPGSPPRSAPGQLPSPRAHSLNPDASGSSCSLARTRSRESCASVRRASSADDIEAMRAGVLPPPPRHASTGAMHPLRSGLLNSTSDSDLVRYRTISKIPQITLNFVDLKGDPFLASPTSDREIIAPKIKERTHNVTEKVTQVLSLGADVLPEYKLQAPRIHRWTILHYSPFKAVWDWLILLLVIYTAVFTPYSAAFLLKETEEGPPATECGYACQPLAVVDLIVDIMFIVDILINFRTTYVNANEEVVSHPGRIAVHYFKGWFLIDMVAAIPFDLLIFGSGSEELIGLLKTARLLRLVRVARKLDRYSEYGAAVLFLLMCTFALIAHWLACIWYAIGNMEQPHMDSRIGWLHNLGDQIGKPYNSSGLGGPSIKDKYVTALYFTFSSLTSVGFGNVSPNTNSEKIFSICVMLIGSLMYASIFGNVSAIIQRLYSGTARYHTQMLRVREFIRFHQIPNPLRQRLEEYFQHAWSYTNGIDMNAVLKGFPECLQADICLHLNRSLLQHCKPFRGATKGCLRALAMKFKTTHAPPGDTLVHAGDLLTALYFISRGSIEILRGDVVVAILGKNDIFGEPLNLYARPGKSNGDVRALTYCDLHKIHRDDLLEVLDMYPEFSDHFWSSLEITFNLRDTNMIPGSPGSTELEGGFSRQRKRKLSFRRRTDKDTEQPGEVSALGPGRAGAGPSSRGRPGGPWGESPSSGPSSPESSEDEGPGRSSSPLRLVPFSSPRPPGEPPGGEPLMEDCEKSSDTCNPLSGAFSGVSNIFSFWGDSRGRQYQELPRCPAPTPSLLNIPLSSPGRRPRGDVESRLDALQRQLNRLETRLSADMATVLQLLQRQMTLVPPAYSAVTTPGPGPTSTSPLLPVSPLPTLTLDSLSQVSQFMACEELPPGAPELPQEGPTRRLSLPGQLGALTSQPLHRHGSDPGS
Test: hERG screening, IonWorks Quattro (hERG L929 cells)
Format: cell-based
Conditions: L929 cells expressing hERG, 1 uM, read-out: HERG Ionworks % Inhib 1 uM
# label = rule met if inhibition at 5 min, 1 uM >= 7% else rule not met

Data request: Textbook exercise: given the entry CCc1nc(N2C[C@H]3C(=O)N(C)C(=N)N[C@@]3(c3ccc(F)cc3F)C2)nc(OC)c1F [Example 32] , state whether its inhibition at 5 min, 1 uM is greater than or equal to 7%.
Data returned: rule met

Data request: Thanks! And COc1nc(N2C[C@H]3C(=O)N(C)C(=N)N[C@@]3(c3cc(F)ccc3F)C2)nc(C2CC2)c1Cl [Example 35] ?
Data returned: rule not met

Data request: Thanks! And CCc1nc(N2C[C@H]3C(=O)N(C)C(=N)N[C@@]3(c3cc(F)c(F)cc3F)C2)nc(OC)c1F [Example 22] ?
Data returned: rule met

Data request: Thanks! And COc1nc(N2C[C@H]3C(=O)N(C)C(=N)N[C@@]3(c3ccc(F)cc3F)C2)nc(CO)c1F [Example 43] ?
Data returned: rule not met

Data request: Thanks! And COc1nc(N2C[C@H]3C(=O)N(C)C(=N)N[C@@]3(c3ccc(F)cc3F)C2)nc(C(F)(F)F)c1F [Example 41] ?
Data returned: rule not met

Data request: Thanks! And CCc1nc(N2C[C@H]3C(=O)N(C)C(=N)N[C@@]3(c3ccc(F)cc3)C2)nc(OC)c1F [Example 30] ?
Data returned: rule not met
